Species: Homo sapiens
test description: Selectivity ratio of Ki for human adenosine A1 receptor to Ki for human adenosine A2A receptor
experimental endpoint: Ratio Ki
// keep it numeric: no unit symbol after the value

Lab note: CCN(CC)[C@H]1CCN(CC(=O)Nc2cc(-n3nc(C)cc3C)nc(-c3ccc(C)o3)n2)C1 gave Ratio Ki of 591

Lab note: CCN1CCN(CC(=O)Nc2cc(-n3nc(C)cc3C)nc(-c3ccc(C)o3)n2)CC1 gave Ratio Ki of 171

Lab note: Cc1cc(C)n(-c2cc(NC(=O)CN3CCCC3)nc(-c3ccc(C)o3)n2)n1 gave Ratio Ki of 40

Lab note: Cc1cc(C)n(-c2cc(NC(=O)CN3CCOCC3)nc(-c3ccc(C)o3)n2)n1 gave Ratio Ki of 88

Lab note: CCN[C@@H]1CCN(CC(=O)Nc2cc(-n3nc(C)cc3C)nc(-c3ccc(C)o3)n2)C1 gave Ratio Ki of 71

Lab note: COC1CCN(CC(=O)Nc2cc(-n3nc(C)cc3C)nc(-c3ccc(C)o3)n2)CC1 gave Ratio Ki of 81

Lab note: Cc1cc(C)n(-c2cc(NC(=O)CN3CCN(C)CC3)nc(-c3ccc(C)o3)n2)n1 gave Ratio Ki of 71

Lab note: Cc1cc(C)n(-c2cc(NC(=O)CN3CCCN(C)CC3)nc(-c3ccc(C)o3)n2)n1 gave Ratio Ki of 210

Next, consider the following compound.
Lab note: Cc1cc(C)n(-c2cc(NC(=O)CCN3CC[C@H](N(C)C)C3)nc(-c3ccc(C)o3)n2)n1 gave Ratio Ki of 263

###

target or test system: Adenosine receptor A1 (Homo sapiens)
Sequence (P30542 whole entry): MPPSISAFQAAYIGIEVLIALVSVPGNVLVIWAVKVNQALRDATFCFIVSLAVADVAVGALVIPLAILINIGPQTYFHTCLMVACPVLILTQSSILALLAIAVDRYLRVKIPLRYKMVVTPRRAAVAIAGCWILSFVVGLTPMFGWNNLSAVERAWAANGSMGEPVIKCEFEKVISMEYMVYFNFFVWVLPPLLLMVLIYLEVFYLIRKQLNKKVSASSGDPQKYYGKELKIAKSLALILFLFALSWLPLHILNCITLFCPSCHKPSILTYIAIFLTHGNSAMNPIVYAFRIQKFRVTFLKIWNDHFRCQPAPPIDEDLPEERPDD
Catalogue of Ki values
Form entry: value (nM) — number only.

Worked set:
Entry COC1CCN(CC(=O)Nc2cc(-n3nc(C)cc3C)nc(-c3ccc(C)o3)n2)CC1 under Adenosine receptor A1 (Homo sapiens) had Ki of 1210

Entry Cc1cc(C)n(-c2cc(NC(=O)CN3CC[C@@H](CN(C)C)C3)nc(-c3ccc(C)o3)n2)n1 under Adenosine receptor A1 (Homo sapiens) had Ki of 220

New cases:
Entry Cc1cc(C)n(-c2cc(NC(=O)CC3CCN(C)CC3)nc(-c3ccc(C)o3)n2)n1 under Adenosine receptor A1 (Homo sapiens) had Ki of 1020

Entry Cc1cc(C)n(-c2cc(NC(=O)CCN(C)C)nc(-c3ccc(C)o3)n2)n1 under Adenosine receptor A1 (Homo sapiens) had Ki of 210

###

target or test system: Voltage-gated inwardly rectifying potassium channel KCNH2 (Homo sapiens, UniProt Q12809)
Sequence (Q12809 whole entry): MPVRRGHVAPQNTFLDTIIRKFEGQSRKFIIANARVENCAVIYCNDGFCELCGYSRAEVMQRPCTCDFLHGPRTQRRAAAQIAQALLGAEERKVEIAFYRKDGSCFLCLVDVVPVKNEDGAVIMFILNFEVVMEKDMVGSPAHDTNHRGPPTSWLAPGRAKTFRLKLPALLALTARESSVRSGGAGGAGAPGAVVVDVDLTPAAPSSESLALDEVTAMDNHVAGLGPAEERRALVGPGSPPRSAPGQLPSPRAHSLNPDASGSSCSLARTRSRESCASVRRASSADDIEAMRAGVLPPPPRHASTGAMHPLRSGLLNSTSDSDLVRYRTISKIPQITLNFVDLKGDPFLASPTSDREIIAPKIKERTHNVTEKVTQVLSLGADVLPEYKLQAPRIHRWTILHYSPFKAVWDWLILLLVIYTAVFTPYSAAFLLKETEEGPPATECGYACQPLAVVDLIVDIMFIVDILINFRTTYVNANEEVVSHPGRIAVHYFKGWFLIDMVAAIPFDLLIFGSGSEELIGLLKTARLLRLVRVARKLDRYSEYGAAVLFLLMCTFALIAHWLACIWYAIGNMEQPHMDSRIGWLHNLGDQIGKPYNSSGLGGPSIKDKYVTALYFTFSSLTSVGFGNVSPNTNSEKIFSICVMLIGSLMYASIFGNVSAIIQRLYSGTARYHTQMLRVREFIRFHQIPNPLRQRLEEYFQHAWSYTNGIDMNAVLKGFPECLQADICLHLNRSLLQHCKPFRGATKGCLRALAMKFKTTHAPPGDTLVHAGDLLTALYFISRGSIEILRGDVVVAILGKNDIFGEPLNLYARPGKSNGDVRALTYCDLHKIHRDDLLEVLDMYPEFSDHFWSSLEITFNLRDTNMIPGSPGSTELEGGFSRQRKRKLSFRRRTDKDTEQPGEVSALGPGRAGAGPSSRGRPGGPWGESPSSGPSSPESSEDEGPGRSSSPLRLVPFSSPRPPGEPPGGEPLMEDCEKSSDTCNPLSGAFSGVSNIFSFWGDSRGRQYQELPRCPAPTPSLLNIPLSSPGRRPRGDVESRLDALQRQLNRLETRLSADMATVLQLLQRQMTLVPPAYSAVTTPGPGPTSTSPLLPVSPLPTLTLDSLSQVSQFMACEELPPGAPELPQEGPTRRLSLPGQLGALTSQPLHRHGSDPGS
test description: Inhibition of human ERG potassium current expressed in HEK293 cells by patch-clamp technique
experimental endpoint: pIC50
Interpret pIC50 as the negative base-10 log of the concentration measured in mol/L.

Lab note: Cc1cc(C)n(-c2cc(NC(=O)CCN3CC[C@H](N(C)C)C3)nc(-c3ccc(C)o3)n2)n1 gave pIC50 of 5.64

Lab note: Cc1cc(C)n(-c2cc(NC(=O)CN3CC[C@H](N(C)C)C3)nc(-c3ccc(C)o3)n2)n1 gave pIC50 of 6.22

Lab note: Cc1cc(C)n(-c2cc(NC(=O)CN3CCCN(C)CC3)nc(-c3ccc(C)o3)n2)n1 gave pIC50 of 6.55

Lab note: Cc1cc(C)n(-c2cc(NC(=O)CN3CCN(C)CC3)nc(-c3ccc(C)o3)n2)n1 gave pIC50 of 6.02

New cases:
Lab note: Cc1cc(C)n(-c2cc(NC(=O)CN3CCC(CN(C)C)CC3)nc(-c3ccc(C)o3)n2)n1 gave pIC50 of 5.78

Lab note: CCN[C@H]1CCN(CC(=O)Nc2cc(-n3nc(C)cc3C)nc(-c3ccc(C)o3)n2)C1 gave pIC50 of 6.38
